ASSAYED_SYSTEM: Sodium channel protein type 5 subunit alpha (Homo sapiens, UniProt Q14524)
Sequence (Q14524 whole entry): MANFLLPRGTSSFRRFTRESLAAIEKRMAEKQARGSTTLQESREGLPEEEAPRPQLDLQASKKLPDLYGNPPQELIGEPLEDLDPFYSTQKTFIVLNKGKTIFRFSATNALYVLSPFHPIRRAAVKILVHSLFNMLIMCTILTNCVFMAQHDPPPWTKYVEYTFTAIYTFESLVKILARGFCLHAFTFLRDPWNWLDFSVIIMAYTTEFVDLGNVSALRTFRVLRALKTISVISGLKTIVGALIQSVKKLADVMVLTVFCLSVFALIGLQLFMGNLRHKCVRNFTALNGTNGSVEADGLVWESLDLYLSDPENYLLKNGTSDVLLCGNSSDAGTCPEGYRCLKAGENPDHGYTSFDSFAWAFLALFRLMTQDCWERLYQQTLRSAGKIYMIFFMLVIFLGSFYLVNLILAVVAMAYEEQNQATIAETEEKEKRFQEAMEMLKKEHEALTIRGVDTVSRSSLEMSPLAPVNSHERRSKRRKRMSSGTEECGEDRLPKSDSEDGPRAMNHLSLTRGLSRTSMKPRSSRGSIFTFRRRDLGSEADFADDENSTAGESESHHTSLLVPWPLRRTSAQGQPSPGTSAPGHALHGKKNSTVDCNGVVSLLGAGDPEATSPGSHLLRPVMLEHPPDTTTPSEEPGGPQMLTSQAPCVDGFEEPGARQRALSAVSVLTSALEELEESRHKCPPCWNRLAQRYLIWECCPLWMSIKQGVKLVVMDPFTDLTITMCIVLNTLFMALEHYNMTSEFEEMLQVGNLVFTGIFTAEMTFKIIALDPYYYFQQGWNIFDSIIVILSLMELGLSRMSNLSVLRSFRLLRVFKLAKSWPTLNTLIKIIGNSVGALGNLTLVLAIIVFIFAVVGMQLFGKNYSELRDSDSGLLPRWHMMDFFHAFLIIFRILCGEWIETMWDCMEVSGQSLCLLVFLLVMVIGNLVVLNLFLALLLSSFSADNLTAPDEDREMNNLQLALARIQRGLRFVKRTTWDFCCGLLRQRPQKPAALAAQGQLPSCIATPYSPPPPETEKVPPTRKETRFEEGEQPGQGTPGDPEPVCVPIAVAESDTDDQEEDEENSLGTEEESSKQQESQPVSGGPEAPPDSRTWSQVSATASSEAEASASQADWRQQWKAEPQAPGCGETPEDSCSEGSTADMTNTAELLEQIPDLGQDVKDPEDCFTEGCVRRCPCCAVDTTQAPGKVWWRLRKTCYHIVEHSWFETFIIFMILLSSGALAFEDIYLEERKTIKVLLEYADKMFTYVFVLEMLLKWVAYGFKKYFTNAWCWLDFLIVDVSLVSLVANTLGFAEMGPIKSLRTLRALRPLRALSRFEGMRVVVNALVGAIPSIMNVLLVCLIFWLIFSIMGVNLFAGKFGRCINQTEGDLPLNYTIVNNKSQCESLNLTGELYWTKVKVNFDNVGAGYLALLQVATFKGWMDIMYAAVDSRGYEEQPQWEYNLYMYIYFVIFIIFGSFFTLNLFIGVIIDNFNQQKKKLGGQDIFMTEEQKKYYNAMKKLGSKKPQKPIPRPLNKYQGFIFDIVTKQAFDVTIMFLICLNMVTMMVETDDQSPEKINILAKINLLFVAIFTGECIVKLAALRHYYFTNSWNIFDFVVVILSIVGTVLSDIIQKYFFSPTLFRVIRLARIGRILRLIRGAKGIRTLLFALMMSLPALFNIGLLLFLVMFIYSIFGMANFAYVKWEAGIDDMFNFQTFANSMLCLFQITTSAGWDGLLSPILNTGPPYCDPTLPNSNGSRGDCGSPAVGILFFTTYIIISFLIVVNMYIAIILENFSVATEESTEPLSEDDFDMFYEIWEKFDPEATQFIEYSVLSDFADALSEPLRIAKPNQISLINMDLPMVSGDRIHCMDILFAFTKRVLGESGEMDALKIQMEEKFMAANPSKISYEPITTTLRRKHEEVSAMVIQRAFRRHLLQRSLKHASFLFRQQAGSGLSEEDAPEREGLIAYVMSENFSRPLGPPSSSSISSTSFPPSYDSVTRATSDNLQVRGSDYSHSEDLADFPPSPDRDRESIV
PROCEDURE_DETAILS: Binding affinity to resting state of human NaV1.5 channel by whole-cell patch clamp assay
ASSAY_CONDITIONS: read-out: K
pKd: −log10 of the molar value.
QUANTITY_NAME: pKd

I have this compound here, O=C(N[C@H](Cc1ccccc1F)C(=O)N[C@@H]1CCc2c(F)c(F)cc(F)c2N(C2CC2)C1=O)C1CC1C(F)(F)F (stereo partly specified) , and I need its recorded pKd.
< 5.00

----------
PROCEDURE_DETAILS: Half life in Sprague-Dawley rat at 3 mg/kg, po and 1 mg/kg, iv
Type: ADME, organism-based
ASSAY_CONDITIONS: in vivo
One threshold, 100 min, splits the recorded half-life values: lower ones are met, equal or higher ones are not met.

Dear reviewer, please state whether `CC(C)N1C(=O)[C@H](NC(=O)[C@@H](Cc2ccccc2OC(F)(F)F)NC(=O)OC(C)(C)C)CCc2cc(F)cc(F)c21` has half-life strictly beneath 100 min.
not met

API: query returns whether the compound falls strictly under 100 min in half-life. Query: CC1CC1C(=O)N[C@H](Cc1ccccc1F)C(=O)N[C@@H]1CCc2c(F)c(F)cc(F)c2N(C(C)C)C1=O (some centres undefined)
met

Hello, is half-life of the following compound strictly smaller than 100 min? `CC(C)N1C(=O)[C@H](NC(=O)[C@@H](Cc2ccccc2F)NC(=O)c2ccc(F)cc2C(F)(F)F)CCc2cc(F)cc(F)c21`
not met

Dear colleague, could you confirm whether half-life of O=C(N[C@H](Cc1ccccc1F)C(=O)N[C@@H]1CCc2c(F)c(F)cc(F)c2N(C2CC2)C1=O)C1CC1C(F)(F)F (some centres undefined) falls below 100 min? Thanks.
not met

Is the reported half-life for `CC(C)N1C(=O)[C@H](NC(=O)[C@@H](Cc2ccccc2F)NC(=O)c2ccc(F)cc2C(F)(F)F)CCc2cc(C(F)(F)F)ccc21` strictly below 100 min?
not met

Given `CC(C)N1C(=O)[C@H](NC(=O)[C@@H](Cc2ccccc2OC(F)(F)F)NC(=O)OC(C)(C)C)CCc2cc(C(F)(F)F)ccc21` , is recorded half-life strictly lower than 100 min?
not met

Threshold test, half-life < 100 min: `CC(C)N1C(=O)[C@H](NC(=O)[C@@H](Cc2ccccc2OC(F)(F)F)NC(=O)OC(C)(C)C)CCc2ccc(F)cc21`
not met

Determine if `CC(C)N1C(=O)[C@H](NC(=O)[C@@H](Cc2ccccc2OC(F)(F)F)NC(=O)OC(C)(C)C)CCc2cccc(F)c21` shows half-life strictly lower than 100 min.
not met

Given the entry `CC(C)N1C(=O)[C@H](NC(=O)[C@@H](Cc2ccccc2OC(F)(F)F)NC(=O)OC(C)(C)C)CCc2ccc(C(F)(F)F)cc21` , would its reported half-life be below 100 min?
met

Is half-life of `CC(C)N1C(=O)[C@H](NC(=O)[C@@H](Cc2ccccc2F)NC(=O)c2ccc(F)cc2C(F)(F)F)CCc2c(F)c(F)cc(F)c21` strictly below 100 min?
not met

Problem: For the compound `CC(C)N1C(=O)[C@H](NC(=O)[C@@H](Cc2ccccc2OC(F)(F)F)NC(=O)OC(C)(C)C)CCc2cc(F)ccc21` , is half-life under 100 min?
not met

Answer whether the compound `CC(C)N1C(=O)[C@H](NC(=O)[C@@H](Cc2ccccc2F)NC(=O)c2ccc(F)cc2C(F)(F)F)CCc2cc(Cl)cc(F)c21` has half-life strictly less than 100 min
not met

Record CC(C)N1C(=O)[C@H](NC(=O)[C@@H](Cc2ccccc2F)NC(=O)C2CC2C(F)(F)F)CCc2c(F)c(F)cc(F)c21 (some centres undefined) : is its half-life strictly below 100 min?
not met
